Provenance of the data: patent US9512107B2

subjectOfTest: IDH2 R172K (Homo sapiens, UniProt P48735, R172K)
protocolDetails: IDH2 R172K enzymatic assay (NADPH cofactor depletion, diaphorase/resazurin readout)
conditionSummary: read-out: Enz R172K
pIC50: −log10 of the molar value.
Each item that follows carries a reported pIC50.

Report pIC50 for CC1(Nc2nc(Nc3ccccc3)nc(-c3ccccc3)n2)COC1 tested on IDH2 R172K (Homo sapiens, UniProt P48735, R172K).
6.00 to 7.00

Field: pIC50 (IDH2 R172K (Homo sapiens, UniProt P48735, R172K)). Entry: CC(C)Nc1nc(Nc2ccnc(C(F)(F)F)c2)nc(-c2cccc(O)c2)n1
> 7.00

Request: pIC50, test system IDH2 R172K (Homo sapiens, UniProt P48735, R172K), entry CS(=O)(=O)c1cccc(Nc2nc(NCC3CC3)nc(-c3cccc(C(F)(F)F)n3)n2)c1
6.00 to 7.00

Write down the reported pIC50 of FC(F)(F)CNc1nc(Nc2ccncc2)nc(-c2ccccc2)n1 , test system: IDH2 R172K (Homo sapiens, UniProt P48735, R172K).
5.00 to 6.00

Recorded pIC50 for CC(C)(C)Nc1nc(Nc2cc(Cl)cc(S(C)(=O)=O)c2)nc(-c2cccc(C(C)(F)F)n2)n1 with IDH2 R172K (Homo sapiens, UniProt P48735, R172K), please?
6.00 to 7.00

Missing value: pIC50, IDH2 R172K (Homo sapiens, UniProt P48735, R172K), entry CC(C)Nc1nc(Nc2cc(F)cc(F)c2)nc(-c2ccnc(N)n2)n1 . Fill in?
> 7.00

Missing value: pIC50, IDH2 R172K (Homo sapiens, UniProt P48735, R172K), entry CC(C)(C)Nc1nc(Nc2ccnc(C3(C#N)CC3)c2)nc(-c2cccc(C(C)(F)F)n2)n1 . Fill in?
> 7.00

Param readout= pIC50; system= IDH2 R172K (Homo sapiens, UniProt P48735, R172K); entry= c1ccc(-c2nc(NCC3CC3)nc(Nc3ccncc3)n2)cc1 ; returns value.
6.00 to 7.00

Form: Entry = CC(=O)Nc1cccc(-c2nc(Nc3ccnc(C(F)(F)F)c3)nc(NC(C)C)n2)n1 | System = IDH2 R172K (Homo sapiens, UniProt P48735, R172K) | pIC50 = ____
5.00 to 6.00

Fill in the recorded pIC50 for this compound, with IDH2 R172K (Homo sapiens, UniProt P48735, R172K) as test system: Nc1cccc(-c2nc(NCC(F)(F)F)nc(Nc3cc(F)cc(F)c3)n2)n1
> 7.00

API: value(readout= pIC50, system= IDH2 R172K (Homo sapiens, UniProt P48735, R172K), query= c1ccc(-c2nc(Nc3ccncc3)nc(NC3CCCC3)n2)cc1 )
6.00 to 7.00

Write down the reported pIC50 of CC(C)(O)CNc1nc(Nc2ccccc2)nc(-c2ccccc2)n1 , test system: IDH2 R172K (Homo sapiens, UniProt P48735, R172K).
5.00 to 6.00

Kindly state the measured pIC50 obtained for COC(C)CNc1nc(Nc2ccnc(C(F)(F)F)c2)nc(-c2cccc(C(F)(F)F)n2)n1 (centres unmarked) with IDH2 R172K (Homo sapiens, UniProt P48735, R172K).
> 7.00

State its pIC50 on IDH2 R172K (Homo sapiens, UniProt P48735, R172K): CC(CO)CNc1nc(Nc2ccnc(C(F)(F)F)c2)nc(-c2cccc(C(F)(F)F)n2)n1 (centres unmarked)
6.00 to 7.00

Form field: pIC50 recorded for Fc1ccc(Nc2nc(NC3C4COCC43)nc(-c3cccc(Cl)n3)n2)cn1 (centres unmarked) with IDH2 R172K (Homo sapiens, UniProt P48735, R172K) (enter value)
6.00 to 7.00

Field: pIC50 (IDH2 R172K (Homo sapiens, UniProt P48735, R172K)). Entry: CC(C)Nc1nc(Nc2ccccc2)nc(-c2ccccn2)n1
6.00 to 7.00

Enter reported pIC50 observed with IDH2 R172K (Homo sapiens, UniProt P48735, R172K) for c1ccc(-c2nc(Nc3ccncc3)nc(NC3CCOC3)n2)cc1 (centres unmarked)
5.00 to 6.00

----------
Tested on: U87MG pLVX-IDH2 R140Q-neo cells
protocolDetails: U87MG pLVX-IDH2 R140Q-neo cell based assay, 2-HG in media by LC-MS at 48 hours
conditionSummary: Homo sapiens, U-87 MG
pIC50: −log10 of the molar value.
readoutName: pIC50

Reported pIC50 for OC1CC1Nc1nc(Nc2ccnc(C(F)(F)F)c2)nc(-c2cccc(C(F)(F)F)n2)n1 (centres unmarked) : what is it?
> 7.00

Look up pIC50 for this molecule: COCC(C)Nc1nc(Nc2ccnc(C(F)(F)F)c2)nc(-c2cccc(Cl)n2)n1 (centres unmarked)
> 7.00

So what's the measured pIC50 for this one? COc1ccccc1-c1nc(Nc2ccccc2)nc(NC(C)C)n1
> 7.00

Name the recorded pIC50 for CC(C)(C)Nc1nc(Nc2cc(Cl)cc(S(C)(=O)=O)c2)nc(-c2cccc(C(C)(F)F)n2)n1 .
> 7.00

Looking for the measured pIC50 of Cc1cc(-c2nc(Nc3cccc(F)c3)nc(NC(C)C)n2)no1 , can you help?
> 7.00

Entry CC(C)(C)Nc1nc(Nc2cc(F)cc(F)c2)nc(-c2cccc(C(C)(F)F)n2)n1 : reported pIC50 = ?
> 7.00

For the molecule CC(C)Nc1nc(Nc2ccnc(C(F)(F)F)c2)nc(-c2cccc([S+](C)[O-])c2)n1 (centres unmarked) , what pIC50 is on record?
> 7.00

Which measured pIC50 value corresponds to FC(F)(F)c1cc(Nc2nc(NC3COC3)nc(-c3ccccn3)n2)ccn1 ?
> 7.00

----------
System: U87MG pLVX-IDH2 R140Q-neo cells
protocolDetails: U87MG pLVX-IDH2 R140Q-neo cell based assay, 2-HG in media by LC-MS at 48 hours
conditionSummary: Homo sapiens, U-87 MG
Each entry below lists one item and its recorded IC50 value.

Some compounds with known IC50 results, for comparison:
compound	readoutName	assayValue
FC1(F)CCC(Nc2nc(Nc3ccncc3)nc(-c3ccccc3)n2)CC1	IC50	100 to 1000 nM
CC(C)(CO)CNc1nc(Nc2ccccc2)nc(-c2ccccc2)n1	IC50	< 100 nM
CC(C)Nc1nc(NC(=O)Cc2ccccc2)nc(-c2ccccc2)n1	IC50	1000 to 10000 nM
CC(C)Nc1cc(Nc2nc(NC(C)C)nc(-c3ccccc3)n2)ccn1	IC50	< 100 nM

// moving on: another record for IC50
Record CC(C)(C)Nc1nc(Nc2cc(F)cc(F)c2)nc(-c2nccc(N)n2)n1 : what is its IC50 with U87MG pLVX-IDH2 R140Q-neo cells?
< 100 nM

----------
subjectOfTest: IDH2 R172K (Homo sapiens, UniProt P48735, R172K)
Sequence (P48735 40-452 R172K): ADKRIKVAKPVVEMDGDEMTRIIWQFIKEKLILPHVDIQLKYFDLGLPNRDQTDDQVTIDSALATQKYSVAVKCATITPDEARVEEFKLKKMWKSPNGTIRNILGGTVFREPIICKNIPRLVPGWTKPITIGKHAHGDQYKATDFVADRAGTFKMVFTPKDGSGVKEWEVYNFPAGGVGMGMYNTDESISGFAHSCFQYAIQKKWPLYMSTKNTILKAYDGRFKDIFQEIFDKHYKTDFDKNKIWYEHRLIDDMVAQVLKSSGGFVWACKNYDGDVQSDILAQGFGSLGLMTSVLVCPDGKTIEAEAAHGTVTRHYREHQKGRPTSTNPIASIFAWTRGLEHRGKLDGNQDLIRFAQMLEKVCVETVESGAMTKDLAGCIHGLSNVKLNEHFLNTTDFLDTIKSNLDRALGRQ
protocolDetails: IDH2 R172K enzymatic assay (NADPH cofactor depletion, diaphorase/resazurin readout)
conditionSummary: read-out: Enz R172K
readoutName: IC50

Below: 6 compounds and their reported IC50.
compound	IC50
COc1ccc(-c2nc(Nc3ccccc3)nc(NC(C)C)n2)cc1	1 to 10 µM
CC(C)CNc1nc(Nc2ccnc(C(F)(F)F)c2)nc(-c2cccc(N)n2)n1	< 0.1 µM
Nc1ccnc(-c2nc(NCC3CC3)nc(Nc3cc(F)cc(F)c3)n2)n1	< 0.1 µM
CC(C)Nc1nc(Nc2ccnc(C(F)(F)F)c2)nc(-c2cc(Cl)cc(C(F)(F)F)c2)n1	1 to 10 µM
CC(CO)Nc1nc(Nc2ccccc2)nc(-c2ccccc2)n1 (stereo not drawn)	1 to 10 µM
CC(C)(C)Nc1nc(Nc2cc(F)cc(F)c2)nc(-c2nccc(N)n2)n1	0.1 to 1 µM

Could you tell me which IC50 is on file for CC(C)Nc1nc(Nc2cncc(F)c2)nc(-c2ccccc2)n1 ?
0.1 to 1 µM

# lookup: IC50 of CC(C)Nc1nc(Nc2ccccc2C#N)nc(-c2ccccc2)n1
1 to 10 µM

Please give the measured IC50 for this compound: Clc1cccc(Nc2nc(NC3CCOCC3)nc(-c3ccccc3)n2)c1
< 0.1 µM
